Tested on: Alternaria solani
Assay: Alternaria test (tomato) / protective
Assay type: in vivo
Conditions: 500 ppm active compound, protective spray, evaluated 7 days after inoculation
Method: Alternaria Test (Tomato)/Protective Solvent: 49 parts by weight of N,N-dimethylformamide Emulsifier: 1 part by weight of alkylaryl polyglycol ether To produce a suitable preparation of active compound, 1 part by weight of active compound is mixed with the stated amounts of solvent and emulsifier, and the concentrate is diluted with water to the desired concentration. […]
measured.quantity: efficacy (%)
Give your result in % as a bare value.

Known results for compounds:
# compound, efficacy / %
records = [
    ("CCC(C)n1cc(-c2ccncc2)c(-c2ccc(Br)s2)n1 (stereo not drawn) [Example 354]", 90),
    ("CC(C)n1cc(-c2ccncc2)c(-c2ccc(C(F)(F)F)s2)n1 [Example 401]", 78),
]

--- query ---
Which efficacy reading was recorded for the compound CC(C)n1cc(-c2ccncc2)c(-c2ccc(Br)s2)n1 [Example 387] ?
100
